Assembled from different publications: IC50 for Tyrosine-protein kinase JAK1 (Homo sapiens).
Quantity Kind: IC50

>  <Molecule>
N#CCC1(n2ccc(-c3ncnc4[nH]ccc34)c2)CN(C2CCN(C(=O)Nc3cnccc3C(F)(F)F)CC2)C1

>  <Quantity Kind>
IC50

>  <Observed Value>
≤ 5 nM

$$$$
>  <Molecule>
CC(C)NC(=O)c1ccc(N2CC(CC#N)(n3cc(-c4ncnc5[nH]ccc45)cn3)C2)cc1

>  <Quantity Kind>
IC50

>  <Observed Value>
< 10 nM

$$$$
>  <Molecule>
NC(=O)c1cnc(Nc2ccc3c(c2)NCC(O)CO3)nc1NCc1cccnc1 (stereo not shown)

>  <Quantity Kind>
IC50

>  <Observed Value>
10 to 100 nM

$$$$
>  <Molecule>
CN(c1ncnc2[nH]ccc12)N1CCC[C@@H](C(=O)NCC(F)F)C1 (single isomer, unassigned)

>  <Quantity Kind>
IC50

>  <Observed Value>
< 10 nM

$$$$
>  <Molecule>
CC1CCNC(=O)c2ccc(c([N+](=O)[O-])c2)-c2ccnc(n2)Nc2ccc(OCC3CCOC3)c(c2)COC1 (stereo not shown)

>  <Quantity Kind>
IC50

>  <Observed Value>
1000 to 10000 nM

$$$$
>  <Molecule>
N#CCC1(n2cc(-c3ncnc4[nH]ccc34)cn2)CN(C2CCN(C(=O)c3ccc4ncccc4c3)CC2)C1

>  <Quantity Kind>
IC50

>  <Observed Value>
≤ 5 nM

$$$$
>  <Molecule>
Nc1cc2ccc1-c1ccnc(n1)Nc1ccc(Oc3cnc4[nH]ccc4c3)c(c1)COCCCCNC2=O

>  <Quantity Kind>
IC50

>  <Observed Value>
1000 to 10000 nM

$$$$

----------
Assembled from different publications: pIC50 for Tyrosine-protein kinase JAK1 (Homo sapiens).
pIC50: −log10 of the molar value.

>  <Compound>
Cc1cc(Nc2ncc(C)c(N3CC(CC#N)(N4CCCC5(COC5)C4)C3)n2)sn1

>  <pIC50>
> 8.00

$$$$
>  <Compound>
CC(C)NC(=O)N1CCC(N2CC(CC#N)(n3cc(-c4ncnc5[nH]ccc45)cn3)C2)CC1

>  <pIC50>
≥ 8.30

$$$$
>  <Compound>
O=C(CO)Nc1cccc(-c2cnc3ccccc3n2)c1

>  <pIC50>
< 5.00

$$$$
>  <Compound>
CN(c1ncnc2[nH]ccc12)N1CCCC(NC(=O)CC(F)(F)F)C1 (centres unmarked)

>  <pIC50>
6.00 to 7.00

$$$$
>  <Compound>
Cc1cnc(Nc2ccc(C(=O)NCCN3CCOCC3)cc2)nc1Nc1ccc2cn[nH]c2c1

>  <pIC50>
8.22

$$$$
>  <Compound>
CN(c1ncnc2[nH]ccc12)N1CCCC(C(=O)N2CC(O)C2)C1 (centres unmarked)

>  <pIC50>
6.00 to 7.00

$$$$
>  <Compound>
Cc1cc(Nc2ncc(C)c(N3CC(CC#N)(NC(=O)c4cccc(C(F)(F)F)c4)C3)n2)sn1

>  <pIC50>
> 8.00

$$$$
>  <Compound>
Cn1c(NC(=O)N2CCC(N3CC(CC#N)(n4cc(-c5ncnc6[nH]ccc56)cn4)C3)CC2)nc2ccccc21

>  <pIC50>
≥ 8.30

$$$$

----------
Assembled from different publications: IC50 for Tyrosine-protein kinase JAK1 (Homo sapiens, UniProt P23458).

>  <Compound>
CCCOC(=O)c1cnc2[nH]ccc2c1N[C@H]1CCC[C@H](CCC#N)C1 (racemic)

>  <IC50>
≤ 10 nM

$$$$
>  <Compound>
N#CCC1(n2cc(-c3ncnc4[nH]ccc34)cn2)CN(C2CCN(C(=O)c3ccc(-c4ccc(C#N)cc4)cc3)CC2)C1

>  <IC50>
≤ 5 nM

$$$$
>  <Compound>
CNC(=O)c1n[nH]c2cc(-c3cc(F)c(O)cc3CC(F)(F)F)nc(NCc3nccnc3N(C)S(C)(=O)=O)c12

>  <IC50>
3.5 nM

$$$$
>  <Compound>
CC1(Nc2nc(Nc3ccc4c(c3)NC[C@H](O)CO4)ncc2C(N)=O)CC1

>  <IC50>
< 10 nM

$$$$
>  <Compound>
Cn1cc(-c2cc3nccn3c(-c3cnn(C4(CC#N)CN(CC5CC5)C4)c3)n2)cn1

>  <IC50>
100 to 1000 nM

$$$$
>  <Compound>
CN(c1ncnc2[nH]ccc12)C1CC2(C1)CN(C(=O)c1cc3ccccc3s1)C2

>  <IC50>
10 to 100 nM

$$$$
>  <Compound>
COC1CNc2cc(Nc3ncc(C(N)=O)c(NC4CC4)n3)ccc2OC1 (centres unmarked)

>  <IC50>
10 to 100 nM

$$$$
>  <Compound>
CCc1cc(O)c(F)cc1-c1nc(NCc2ccccc2N(C)S(C)(=O)=O)c2c(C(=O)NC)n[nH]c2n1

>  <IC50>
2 nM

$$$$
>  <Compound>
Cc1cnc(Nc2ccc3c(c2)CN(C)C3)nc1N1CC(CC#N)(N2CCCC3(C2)CC3(F)F)C1 (centres unmarked)

>  <IC50>
< 10 nM

$$$$
>  <Compound>
Cc1cnc2nc1NCCCCCNC(=O)c1ccc(cc1)-c1cnc(F)c(c1)N2

>  <IC50>
101 to 1000 nM

$$$$
>  <Compound>
CC(=O)OCC(=O)Nc1cccc(-c2cnc3ccccc3n2)c1

>  <IC50>
> 10000 nM

$$$$
>  <Compound>
Cc1ccc(C(=O)N[C@H](C)c2ccccc2)cc1-c1ccc2c(c1)[nH]c1ncncc12

>  <IC50>
> 1000 nM

$$$$
>  <Compound>
Cc1c[nH]c2nc(Nc3ccc4cn[nH]c4c3)nc(NC3CCC3)c12

>  <IC50>
> 1000 nM

$$$$
>  <Compound>
CC1CCC(C(=O)NCC(F)(F)F)CN1N(C)c1ncnc2[nH]ccc12 (centres unmarked)

>  <IC50>
100 to 1000 nM

$$$$
>  <Compound>
N#CCC1(n2cc(-c3ncnc4[nH]ccc34)cn2)CN(C2CCN(C(=O)Cc3c(Cl)cccc3Cl)CC2)C1

>  <IC50>
5 to 20 nM

$$$$
>  <Compound>
Cc1cnc(Nc2ccc3c(c2)CN(C)C3)nc1N1CC(CC#N)(N2CCC(F)CC2)C1

>  <IC50>
< 10 nM

$$$$
>  <Compound>
Cn1cc(-c2cc3nccn3c(-c3ccn([C@@H](C[C@H](O)C(F)(F)F)C4CC4)c3)n2)cn1

>  <IC50>
100 to 1000 nM

$$$$

----------
Assembled from different publications: IC50 for Tyrosine-protein kinase JAK1 (Homo sapiens).

>  <Chem Smiles>
Cc1cc(Nc2ncc(C)c(N3CC(CC#N)(NC(=O)Cc4ccccc4F)C3)n2)sn1

>  <IC50>
< 20 nM

$$$$
>  <Chem Smiles>
N#CCC1(n2cc(-c3nc(Nc4cnn(CCN5CCOCC5)c4)nc4ccsc34)cn2)CCOCC1

>  <IC50>
500 to 1000 nM

$$$$
>  <Chem Smiles>
COc1ccc(NC(=O)Nc2cccc(-c3cnc4ccccc4n3)c2)cc1

>  <IC50>
> 50000 nM

$$$$
>  <Chem Smiles>
N#CC=C1CCN(n2cnc3cnc4[nH]ccc4c32)CC1

>  <IC50>
1.31 nM

$$$$
>  <Chem Smiles>
C[C@H](O)CNCc1cc(OC2CCN([C@H]3C[C@](CC#N)(n4cc(-c5ncnc6[nH]ccc56)cn4)C3)CC2)nc(C(F)(F)F)c1

>  <IC50>
< 10 nM

$$$$
>  <Chem Smiles>
N#CC[C@]1(n2cc(-c3ncnc4[nH]ccc34)cn2)C[C@H](N2CCC(Oc3cc(CN4CCC[C@@H]4CO)cc(C(F)(F)F)n3)CC2)C1

>  <IC50>
< 10 nM

$$$$
>  <Chem Smiles>
CC(C)(C)NS(=O)(=O)c1cccc(N2CCc3cnc(Nc4ccc(CC5CCOCC5)cc4)nc32)c1

>  <IC50>
100 nM

$$$$
>  <Chem Smiles>
N#Cc1ccc(-c2nc(Nc3ccccc3)nc3ccsc23)cc1F

>  <IC50>
> 1000 nM

$$$$

----------
Assembled from different publications: IC50 for Tyrosine-protein kinase JAK1 (Homo sapiens).

>  <Molecule>
CC(C)S(=O)(=O)NC12CC(n3cnc4cnc5[nH]ccc5c43)(C1)C2

>  <IC50>
25.5 nM

$$$$
>  <Molecule>
COCCOC(=O)c1cnc2[nH]ccc2c1N[C@@H]1CCCN(C(=O)CC#N)C1

>  <IC50>
10 to 100 nM

$$$$
>  <Molecule>
NC(=O)c1cnc(Nc2ccc3c(c2)NC[C@H](O)CO3)nc1NC1CCC(O)CC1 (stereo partly shown)

>  <IC50>
10 to 100 nM

$$$$
>  <Molecule>
Cn1cc(-c2cc3ncc(C#N)n3c(-c3cnn(C(CC#N)C4CC4)c3)n2)cn1 (stereo not shown)

>  <IC50>
> 1000 nM

$$$$
>  <Molecule>
CCOC(=O)CCn1cc(Nc2ncc3ccn(C[C@H]4CC[C@H](O)CC4)c3n2)cn1

>  <IC50>
< 100 nM

$$$$
>  <Molecule>
Cc1cc(Nc2cc3nccn3c(N[C@@H]3C[C@H]4CC[C@@H](C3)N4CCC#N)n2)n[nH]1

>  <IC50>
2.95 nM

$$$$
>  <Molecule>
CC1CCNC(=O)c2ccc(c([N+](=O)[O-])c2)-c2ccnc(n2)Nc2ccc(OC3CCCOC3)c(c2)COC1 (stereo not shown)

>  <IC50>
1000 to 10000 nM

$$$$
>  <Molecule>
N#CCC(C1CCCC1)n1ncc2c1C(=O)c1c[nH]c3nccc-2c13 (stereo not shown)

>  <IC50>
> 100 nM

$$$$
>  <Molecule>
CCN(c1ccc(O)cc1CNc1nc(-c2cc(F)c(O)cc2CC(F)(F)F)cc2[nH]nc(C(=O)NC)c12)S(=O)(=O)c1ccccc1

>  <IC50>
75 nM

$$$$
>  <Molecule>
N#CCC1(n2cc(-c3c(C#N)cnc4[nH]ccc34)cn2)CN(C2CCN(C(=O)c3cc(F)cc(C#N)c3)CC2)C1

>  <IC50>
5 to 20 nM

$$$$
>  <Molecule>
O=C(NCCC(F)(F)F)c1nn(Cc2ccccc2)c2c1CN(c1ncnc3[nH]ccc13)CC2

>  <IC50>
100 to 500 nM

$$$$
>  <Molecule>
CC1CCNC(=O)c2ccc(c([N+](=O)[O-])c2)-c2ccnc(n2)Nc2ccc(OCC3CC3)c(c2)COC1 (stereo not shown)

>  <IC50>
> 10000 nM

$$$$
>  <Molecule>
CN(c1ccc(Cl)cc1CNc1nc(-c2cc(F)c(O)cc2CC(F)(F)F)cc2[nH]nc(C(N)=O)c12)S(C)(=O)=O

>  <IC50>
14.6 nM

$$$$
>  <Molecule>
CNC(=O)c1csc(-c2cnc3[nH]ccc3c2N[C@H]2C[C@@H](NS(=O)(=O)c3cccc(C#N)c3)C2)n1

>  <IC50>
≤ 10 nM

$$$$
>  <Molecule>
Cc1cnc(Nc2cnn(C)c2)nc1N1CC2(C1)CC2(F)F

>  <IC50>
< 20 nM

$$$$
>  <Molecule>
COCCC(C1CCC1)n1cc(-c2nc(-c3cnn(C)c3)cc3nccn23)cn1 (stereo not shown)

>  <IC50>
> 1000 nM

$$$$
>  <Molecule>
CCCOC(=O)NC[C@H]1CC[C@H](n2c([C@@H](C)O)nc3cnc4ccsc4c32)CC1

>  <IC50>
≤ 100 nM

$$$$
>  <Molecule>
CN(c1ncnc2[nH]ccc12)C1CC2(C1)CN(C(=O)c1c(F)cc(C#N)cc1F)C2

>  <IC50>
≤ 10 nM

$$$$
>  <Molecule>
CCC(Cn1ccc2cnc(Nc3cnn(CC(=O)OC(C)C(C)O)c3)nc21)C(C)C (stereo not shown)

>  <IC50>
< 100 nM

$$$$
>  <Molecule>
N#CCC(=O)N1CCC[C@@H](Nc2c(-c3ncccn3)cnc3[nH]ccc23)C1

>  <IC50>
10 to 100 nM

$$$$
>  <Molecule>
O=C(CN1CCCCC1)N1[C@@H]2CC[C@H]1C[C@H](Nc1nc(Nc3ncc(CO)s3)cc3ncccc13)C2

>  <IC50>
4.92 nM

$$$$
>  <Molecule>
C[C@H](Nc1cncc(Nc2ccc[nH]c2=O)n1)c1ccc(F)cn1

>  <IC50>
< 100 nM

$$$$
>  <Molecule>
Cn1cc(-c2cc3nccn3c(-c3cnn(C4(CC#N)CC5(CCCC5)C4)c3)n2)cn1

>  <IC50>
100 to 1000 nM

$$$$
>  <Molecule>
Cc1cc(Nc2ncc(C)c(N3CC(CC#N)(NC(=O)c4cncc(F)c4)C3)n2)sn1

>  <IC50>
< 20 nM

$$$$
>  <Molecule>
CNS(=O)(=O)C[C@H]1CC[C@H](n2c([C@@H](C)O)nc3cnc4ccsc4c32)CC1

>  <IC50>
≤ 1000 nM

$$$$
>  <Molecule>
C#CCN1CC(CC#N)(n2cc(-c3nc(-c4cnn(C)c4)cc4nccn34)cn2)C1

>  <IC50>
100 to 1000 nM

$$$$
>  <Molecule>
Nc1cc2ccc1-c1ccnc(n1)Nc1ccc(OC3CC3)c(c1)COCCCCNC2=O

>  <IC50>
1000 to 10000 nM

$$$$
>  <Molecule>
CCC(Cn1ccc2cnc(Nc3cnn(CC(=O)OC[C@H](C)O)c3)nc21)C(C)C (stereo partly shown)

>  <IC50>
< 100 nM

$$$$
>  <Molecule>
O=c1[nH]c2c(N3CCNCC3)nc(-c3cnc4ccc(F)cn34)nc2n1C1CCOCC1

>  <IC50>
> 1000 nM

$$$$
>  <Molecule>
CC[C@H](O)C(=O)N1C[C@H]2C[C@H](N(C)c3ncnc4[nH]ccc34)C[C@H]2C1

>  <IC50>
70 nM

$$$$
>  <Molecule>
C[C@H](NC(=O)c1ccc(N2CC(CC#N)(n3cc(-c4ncnc5[nH]ccc45)cn3)C2)c(F)c1)C1CC1

>  <IC50>
< 10 nM

$$$$
